Measured pIC50 on 6XHis-CRBN-DDB1 protein (Homo sapiens (Human), UniProt Q96SW2) follows.
pIC50: −log10 of the molar value.

Examples with answers:
molecule="COc1ccc(C(=O)NCc2cccc3c2CN(C2CCC(=O)NC2=O)C3=O)cc1 (centres unmarked)" measurement_target="6XHis-CRBN-DDB1 protein (Homo sapiens (Human), UniProt Q96SW2)" value_observed="< 5.00"
molecule="O=C1CCC(N2Cc3c(CNC(=O)c4ccc(C(F)(F)F)c(F)c4)cccc3C2=O)C(=O)N1 (centres unmarked)" measurement_target="6XHis-CRBN-DDB1 protein (Homo sapiens (Human), UniProt Q96SW2)" value_observed="5.00 to 6.00"
molecule="O=C1CCC(N2Cc3c(CNC(=O)c4ccc5nc[nH]c5c4)cccc3C2=O)C(=O)N1 (centres unmarked)" measurement_target="6XHis-CRBN-DDB1 protein (Homo sapiens (Human), UniProt Q96SW2)" value_observed="5.00 to 6.00"

Now look at this one.
Item: O=C1CCC(N2Cc3c(CNC(=O)c4ccc(Cl)cc4F)cccc3C2=O)C(=O)N1 (centres unmarked) | System: 6XHis-CRBN-DDB1 protein (Homo sapiens (Human), UniProt Q96SW2) | pIC50: > 6.00

---

MEASUREMENT TARGET: UniProtKB Q96SW2
pIC50: −log10 of the molar value.
OBSERVATION TYPE: pIC50

Examples with answers:
compound="Cc1ccc(F)cc1C(=O)NCc1cccc2c1CN(C1CCC(=O)NC1=O)C2=O (stereo not shown) [Compound 32]" value_observed="5.00 to 6.00"
compound="O=C1CCC(N2Cc3c(CNC(=O)c4cccc(OC(F)(F)F)c4)cccc3C2=O)C(=O)N1 (stereo not shown) [Compound 20]" value_observed="5.00 to 6.00"

Item: O=C1CCC(N2Cc3c(CNC(=O)c4ccc(F)c(Cl)c4)cccc3C2=O)C(=O)N1 (stereo not shown) [Compound 15] | System: UniProtKB Q96SW2 | pIC50: > 6.00

Item: O=C1CCC(N2Cc3c(CNC(=O)c4ccc(F)cc4)cccc3C2=O)C(=O)N1 (stereo not shown) [Compound 7] | System: UniProtKB Q96SW2 | pIC50: 5.00 to 6.00

Item: CCCc1ccc(C(=O)NCc2cccc3c2CN(C2CCC(=O)NC2=O)C3=O)cc1 (stereo not shown) [Compound 30] | System: UniProtKB Q96SW2 | pIC50: > 6.00

Item: O=C1CCC(N2Cc3c(CNC(=O)c4cccc5cc[nH]c45)cccc3C2=O)C(=O)N1 (stereo not shown) [Compound 38] | System: UniProtKB Q96SW2 | pIC50: > 6.00

Item: O=C1CCC(N2Cc3c(CNC(=O)c4ccccc4Nc4ccccc4)cccc3C2=O)C(=O)N1 (stereo not shown) [Compound 45] | System: UniProtKB Q96SW2 | pIC50: 5.00 to 6.00

Item: O=C1CCC(N2Cc3c(CNC(=O)c4cccc(F)c4)cccc3C2=O)C(=O)N1 (stereo not shown) [Compound 9] | System: UniProtKB Q96SW2 | pIC50: 5.00 to 6.00

Item: O=C1CCC(N2Cc3c(CNC(=O)c4ccc(OC(F)(F)F)cc4)cccc3C2=O)C(=O)N1 (stereo not shown) [Compound 34] | System: UniProtKB Q96SW2 | pIC50: 5.00 to 6.00

Item: O=C1CCC(N2Cc3c(CNC(=O)c4ccccc4F)cccc3C2=O)C(=O)N1 (stereo not shown) [Compound 31] | System: UniProtKB Q96SW2 | pIC50: 5.00 to 6.00
